Every entry's value here was drawn from ChEMBL document CHEMBL1909046.

# TESTED_ON: 5-hydroxytryptamine receptor 1A (Rattus norvegicus)
# Sequence (P19327 whole entry): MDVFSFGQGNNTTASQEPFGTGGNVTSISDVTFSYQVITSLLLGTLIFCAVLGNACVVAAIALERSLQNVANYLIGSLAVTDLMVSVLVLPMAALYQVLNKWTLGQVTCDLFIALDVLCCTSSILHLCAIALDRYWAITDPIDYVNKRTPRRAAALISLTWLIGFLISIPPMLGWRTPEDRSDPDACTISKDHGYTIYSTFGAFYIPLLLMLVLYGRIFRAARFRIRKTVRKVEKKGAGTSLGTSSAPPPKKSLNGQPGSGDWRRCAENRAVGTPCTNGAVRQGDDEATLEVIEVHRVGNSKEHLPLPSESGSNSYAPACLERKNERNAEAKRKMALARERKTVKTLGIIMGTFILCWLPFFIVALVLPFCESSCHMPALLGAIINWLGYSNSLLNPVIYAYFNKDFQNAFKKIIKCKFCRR
# Assay type: cell membranes, CHO-K1, Membrane
# TEST_CONTEXT: read-out: Ki; note: in other assays of this panel Not Active means under 50% inhibition at 10 µM
Under this convention, class 1 denotes Ki strictly below 0.3 µM and class 0 denotes Ki at or above 0.3 µM.

Qu. Here's an entry: `CN(C)CCC=C1c2ccccc2CCc2ccccc21` . Is its Ki below 0.3 µM?
Ans. class 0

###

# TESTED_ON: C-C chemokine receptor type 2 (Homo sapiens, UniProt P41597)
# Sequence (P41597 whole entry): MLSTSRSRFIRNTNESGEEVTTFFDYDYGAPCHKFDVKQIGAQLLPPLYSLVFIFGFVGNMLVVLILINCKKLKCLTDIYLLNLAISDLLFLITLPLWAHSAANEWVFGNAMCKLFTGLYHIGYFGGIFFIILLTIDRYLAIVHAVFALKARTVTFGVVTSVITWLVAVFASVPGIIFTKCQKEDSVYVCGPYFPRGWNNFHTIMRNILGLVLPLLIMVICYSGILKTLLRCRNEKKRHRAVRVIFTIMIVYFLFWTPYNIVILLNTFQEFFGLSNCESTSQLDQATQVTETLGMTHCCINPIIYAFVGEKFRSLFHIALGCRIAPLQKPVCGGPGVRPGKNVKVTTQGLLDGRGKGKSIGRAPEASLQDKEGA
# Assay type: cell membranes, Membrane
# TEST_CONTEXT: cho-k1
READOUT_LABEL: IC50

The cases that follow already have their IC50 on record.
>>> value_measured("C[C@]12CC[C@H]3[C@@H](CCC4=CC(=O)CC[C@@H]43)[C@@H]1CC[C@@H]2O [NANDROLONE]")
"Not Active"
>>> value_measured("CN(C)C(=N)NC(=N)N [METFORMIN]")
"Not Active"
>>> value_measured("O=C(O)P(=O)(O)O [FOSCARNET]")
"Not Active"
>>> value_measured("O=C(c1ccccc1F)N1CCC(Cc2ccccc2)CC1")
"Not Active"
>>> value_measured("C[C@H]1COc2c(N3CCN(C)CC3)c(F)cc3c(=O)c(C(=O)O)cn1c23.C[C@H]1COc2c(N3CCN(C)CC3)c(F)cc3c(=O)c(C(=O)O)cn1c23.O [LEVOFLOXACIN]")
"Not Active"

// next item, IC50 requested
Qu. Please state recorded IC50 (tested on C-C chemokine receptor type 2 (Homo sapiens, UniProt P41597)) of N[C@@H](Cn1ccc(=O)c(O)c1)C(=O)O [L-MIMOSINE]; note: in other assays of this panel Not Active means under 50% inhibition at 10 µM
Ans. Not Active

###

# TESTED_ON: Tyrosine-protein kinase Fyn (Homo sapiens, UniProt P06241)
# Sequence (P06241 whole entry): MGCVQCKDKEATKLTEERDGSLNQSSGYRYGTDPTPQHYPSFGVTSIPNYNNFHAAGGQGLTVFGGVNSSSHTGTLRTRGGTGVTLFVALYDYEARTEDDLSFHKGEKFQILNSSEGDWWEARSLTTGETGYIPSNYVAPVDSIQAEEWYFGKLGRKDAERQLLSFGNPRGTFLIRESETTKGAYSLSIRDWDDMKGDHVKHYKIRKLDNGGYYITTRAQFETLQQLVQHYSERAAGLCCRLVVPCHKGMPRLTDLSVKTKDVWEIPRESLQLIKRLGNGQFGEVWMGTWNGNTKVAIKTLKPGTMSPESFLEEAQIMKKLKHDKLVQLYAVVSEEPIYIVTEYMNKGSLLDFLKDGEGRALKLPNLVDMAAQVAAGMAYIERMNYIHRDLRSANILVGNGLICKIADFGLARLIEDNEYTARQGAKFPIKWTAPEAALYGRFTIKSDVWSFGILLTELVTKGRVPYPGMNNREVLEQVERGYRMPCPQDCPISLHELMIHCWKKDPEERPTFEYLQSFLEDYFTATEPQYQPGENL
# TEST_METHOD_NOTES: biochemical
# Format: cell-based, Insect cells
# TEST_CONTEXT: read-out: IC50
READOUT_LABEL: IC50 (µM)
Express the result in µM but write the number alone.

>>> value_measured("Cc1c(O)cccc1C(=O)N[C@@H](CSc1ccccc1)[C@H](O)CN1C[C@H]2CCCC[C@H]2C[C@H]1C(=O)NC(C)(C)C")
7.97
>>> value_measured("CCCCCCCCNC(C)C(O)c1ccc(SC(C)C)cc1 (centres undefined) [SULOCTIDIL]")
0.722
>>> value_measured("C[C@@](Cc1ccc(O)c(O)c1)(NN)C(=O)O.O [CARBIDOPA]")
3.73

// next item, IC50 requested
Qu. I have this compound here, Clc1ccc(COC(Cn2ccnc2)c2ccc(Cl)cc2Cl)c(Cl)c1 (centres undefined) [MICONAZOLE] , and I need its recorded IC50.
Ans. 4.16

###

# TESTED_ON: Adenosine receptor A3 (Homo sapiens, UniProt P0DMS8)
# Sequence (P0DMS8 whole entry): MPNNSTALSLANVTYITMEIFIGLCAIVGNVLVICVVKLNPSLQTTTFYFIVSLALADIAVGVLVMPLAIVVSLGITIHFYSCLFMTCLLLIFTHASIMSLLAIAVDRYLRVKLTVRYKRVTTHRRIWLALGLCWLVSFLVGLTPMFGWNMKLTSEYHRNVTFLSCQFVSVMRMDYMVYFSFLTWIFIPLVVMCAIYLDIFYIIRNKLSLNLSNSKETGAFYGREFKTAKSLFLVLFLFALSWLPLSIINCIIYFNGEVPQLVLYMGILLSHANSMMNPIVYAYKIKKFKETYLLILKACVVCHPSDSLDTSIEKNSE
# Format: cell membranes, CHO-K1, Membrane
# TEST_CONTEXT: cho-k1; read-out: IC50
READOUT_LABEL: pIC50
Note on units: pIC50 is unitless, being -log10 of a concentration expressed in mol/L.

Qu. I have this sequence here, `TRANSPLATIN` , and I need its recorded pIC50.
Ans. 6.00

###

# TESTED_ON: Insulin receptor (Rattus norvegicus, UniProt P15127)
# Sequence (P15127 27-759 limits assumed): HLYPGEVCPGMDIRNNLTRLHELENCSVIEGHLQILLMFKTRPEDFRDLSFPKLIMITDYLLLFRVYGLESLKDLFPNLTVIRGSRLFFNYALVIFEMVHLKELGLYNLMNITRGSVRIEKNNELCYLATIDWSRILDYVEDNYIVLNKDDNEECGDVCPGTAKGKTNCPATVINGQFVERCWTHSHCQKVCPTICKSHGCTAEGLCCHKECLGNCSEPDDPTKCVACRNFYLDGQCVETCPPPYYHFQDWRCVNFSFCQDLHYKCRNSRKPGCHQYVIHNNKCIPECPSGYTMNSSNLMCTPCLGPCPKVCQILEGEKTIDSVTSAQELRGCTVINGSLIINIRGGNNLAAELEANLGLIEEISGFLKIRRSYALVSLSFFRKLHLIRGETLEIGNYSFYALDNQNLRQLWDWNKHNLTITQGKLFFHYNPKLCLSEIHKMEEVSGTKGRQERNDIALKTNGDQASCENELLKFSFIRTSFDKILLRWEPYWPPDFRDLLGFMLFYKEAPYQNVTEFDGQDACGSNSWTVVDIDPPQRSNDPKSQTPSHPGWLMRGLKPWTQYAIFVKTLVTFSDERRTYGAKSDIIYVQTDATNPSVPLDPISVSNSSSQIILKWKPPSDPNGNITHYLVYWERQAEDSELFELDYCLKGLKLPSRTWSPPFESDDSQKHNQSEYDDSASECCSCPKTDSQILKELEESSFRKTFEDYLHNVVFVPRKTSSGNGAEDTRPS
# Sequence (P15127 764-1383 limits assumed): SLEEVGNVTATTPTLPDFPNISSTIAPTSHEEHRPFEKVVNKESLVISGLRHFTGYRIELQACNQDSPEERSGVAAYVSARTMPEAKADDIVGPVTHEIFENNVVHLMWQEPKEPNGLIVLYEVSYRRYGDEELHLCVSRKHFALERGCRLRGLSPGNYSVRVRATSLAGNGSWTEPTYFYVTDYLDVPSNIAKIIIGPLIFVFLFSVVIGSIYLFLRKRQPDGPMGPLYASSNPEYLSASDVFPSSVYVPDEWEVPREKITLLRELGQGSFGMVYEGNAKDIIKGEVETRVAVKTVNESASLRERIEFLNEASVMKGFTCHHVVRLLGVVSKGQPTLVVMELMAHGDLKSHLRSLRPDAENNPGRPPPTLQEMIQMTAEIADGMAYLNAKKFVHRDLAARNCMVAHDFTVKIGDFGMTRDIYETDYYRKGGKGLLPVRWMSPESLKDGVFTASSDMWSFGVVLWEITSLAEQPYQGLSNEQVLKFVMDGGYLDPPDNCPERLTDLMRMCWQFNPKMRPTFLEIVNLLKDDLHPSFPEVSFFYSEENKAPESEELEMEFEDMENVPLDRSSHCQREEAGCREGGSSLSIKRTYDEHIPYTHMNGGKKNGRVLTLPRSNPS
# Format: cell membranes, Wistar, Liver, Membrane
READOUT_LABEL: IC50

The cases that follow already have their IC50 on record.
>>> value_measured("CCN(CC)CCNC(=O)c1ccc(N)cc1 [PROCAINAMIDE]")
"Not Active"
>>> value_measured("O=c1c(-c2ccc(O)cc2)coc2cc(O)cc(O)c12 [GENISTEIN]")
"Not Active"
>>> value_measured("C[C@]12C=CC(=O)C=C1CC[C@@H]1[C@@H]2C(=O)C[C@@]2(C)[C@H]1CC[C@]2(O)C(=O)CO [PREDNISONE]")
"Not Active"
>>> value_measured("NCCCNCCSP(=O)(O)O [AMIFOSTINE]")
"Not Active"

// next item, IC50 requested
Qu. I have this compound here, NC(=O)N1c2ccccc2CC(=O)c2ccccc21 [OXCARBAZEPINE] , and I need its recorded IC50.
Ans. Not Active
